Test: ATG_NRF2_ARE_CIS: Attagene CIS-FACTORIAL HepG2 Assay for human Nuclear Factor Erythroid 2 Related Factor 2 (NFR2) response to Antioxidant Response Elements (ARE) (AID 2282992)
Conditions: HepG2 Attagene ARE/NRF2 reporter, transcription factor activity; actives raise or lower the signal
Method: ATG_CIS is a cell-based, multiplexed-readout assay that uses HepG2, a human liver cell line, with measurements taken at 24 hours after chemical dosing in a 24-well plate.ATG_NRF2_ARE_CIS is one of 52 assay component(s) measured or calculated from the ATG_CIS assay. […] This assay endpoint, ATG_NRF2_ARE_CIS, was analyzed with bidirectional fitting relative to DMSO as the negative control and baseline of activity. […]
Activity calls are given as the source filed them. The calls were made as follows: active = hit-call score of the fitted dose curve at least 0.9, where 1 is the maximum; inactive = score below 0.9.
Possible outcomes: Y for active, N for inactive

Compound	Label
O=S(=O)(O)c1cc(S(=O)(=O)O)c2ccc3c(S(=O)(=O)O)cc(S(=O)(=O)O)c4ccc1c2c43	N
Cc1ccc2oc(=O)ccc2c1	Y
COC(=O)c1cc(Cl)ccc1[N+](=O)[O-]	Y
OC1CCCCCCCCCCC1	N
C=CCOCC(O)CCl (centres undefined)	Y
C[Si](C)(CCCN)O[Si](C)(C)CCCN	N
CC(=O)[C@@]1(O)CC[C@H]2[C@@H]3C[C@H](C)C4=CC(=O)C=C[C@]4(C)[C@@]3(F)[C@@H](O)C[C@@]21C	N
CC1=NC(C)OC1C (centres undefined)	Y
Nc1ccc2cc3ccccc3cc2c1	Y
CO[Si](OC)(OC)c1ccccc1	N
CC(CC=O)c1ccccc1 (centres undefined)	Y
c1cc(C(c2ccc(OCC3CO3)cc2)C(c2ccc(OCC3CO3)cc2)c2ccc(OCC3CO3)cc2)ccc1OCC1CO1 (centres undefined)	Y
CCCCCCCCCCCCCCCC(=O)OCC	N
CC(C)=CCC[C@H](C)CCO	N
O=C(Nc1ccccc1)c1ccccc1O	N
O=C(O)CCCCCCCCCC(=O)O	N
Cc1ccc(OC(=O)CC(C)C)cc1	N
C[C@]12C=CC(=O)C=C1CC[C@@H]1[C@@H]2[C@@H](O)C[C@@]2(C)[C@H]1CC[C@]2(O)C(=O)CO	N
[Cl][Nd]([Cl])[Cl]	N

----------
experiment: ATG_ERE_CIS: Attagene CIS-FACTORIAL HepG2 Assay for Estrogen Response Element (ERE) (AID 2282940); conditions: HepG2 ERE cis-reporter, Attagene RNA transcript; actives raise or lower the signal
Activity calls are given as the source filed them. Rule for the calls: active = hit-call score of the fitted dose curve at least 0.9, where 1 is the maximum; inactive = score below 0.9.
Possible outcomes: 1 (yes) (active), 0 (no) (inactive)

Compound	Label
O=C(O)Cc1c(Cl)ccc(Cl)c1Cl	0 (no)
CCCCCCCCCCCSCC(=O)O	0 (no)
CCCCCCCCCCOC(C)=O	1 (yes)
CC1(C)O[C@@H]2C[C@H]3[C@@H]4C[C@H](F)C5=CC(=O)CC[C@]5(C)[C@H]4[C@@H](O)C[C@]3(C)[C@]2(C(=O)CO)O1	0 (no)
CCCCCCCCO[C@@H]1O[C@H](CO)[C@@H](O)[C@H](O)[C@H]1O	0 (no)
CC1(C)O[C@@H]2C[C@H]3[C@@H]4C[C@H](F)C5=CC(=O)C=C[C@]5(C)[C@@]4(F)[C@@H](O)C[C@]3(C)[C@]2(C(=O)CO)O1	1 (yes)
COCCOCCOCCOCCOC	0 (no)
COCC(C)N (centres undefined)	0 (no)
CCCCC(CC)CCC(CC(C)C)OS(=O)(=O)O (centres undefined)	0 (no)

----------
assay: ATG_M_06_TRANS: Attagene TRANS-FACTORIAL HepG2 Assay for M06 Transcription Factor (Internal Marker) (AID 2282983); conditions: HepG2 Attagene TRANS M06 internal marker reporter
Results filed as inconclusive are left out. Activity calls are given as the source filed them. Rule for the calls: active = hit-call score of the fitted dose curve at least 0.9, where 1 is the maximum; inconclusive = response in the unintended direction; inactive = score below 0.9.
Possible outcomes: active, inactive

Compound	Label
C=CCOCC(O)CCl (stereo not drawn)	inactive
CC1(C)O[C@@H]2C[C@H]3[C@@H]4C[C@H](F)C5=CC(=O)CC[C@]5(C)[C@H]4[C@@H](O)C[C@]3(C)[C@]2(C(=O)CO)O1	inactive
CCc1nccnc1C	inactive
COCCOCCOCCOCCOC	inactive
CCCCCC(C)O (stereo not drawn)	inactive
CC(=O)OC1C2(C)CCC(C2)C1(C)C (stereo not drawn)	inactive
O=C1C=CC(=O)O1	inactive
CCN(CCC#N)c1ccc(N=Nc2c(Cl)cc([N+](=O)[O-])cc2Cl)cc1	inactive
O=C(C=Cc1ccccc1)OCc1ccccc1	inactive
CCCCCCC(O)CO (stereo not drawn)	inactive
c1ccc(CCCc2ccncc2)cc1	inactive
CCCCCCOc1cc(C)c(O)c(C)c1C	inactive
O=S1(=O)OC(c2ccc(O)cc2)(c2ccc(O)cc2)c2ccccc21	inactive
Cc1ccc(C(C)(C)C)cc1	inactive
O=Nc1ccc(O)cc1	inactive
O=C1Nc2ccccc2C1(c1ccc(O)cc1)c1ccc(O)cc1	inactive
O=C(c1ccccc1)C1CCC1	inactive
CC=CCO	inactive
CCN(CC#N)c1cccc(C)c1	inactive
COCc1c(C(C)C)nc(C(C)C)c(/C=C/[C@@H](O)C[C@@H](O)CC(=O)O)c1-c1ccc(F)cc1	inactive
C=CCOc1c(Br)cc(Br)cc1Br	inactive
CC(C)=CCC/C(C)=C\C#N	inactive
Cc1cc(C)c(C(=O)O)c(C)c1	inactive
CC1=NN(c2cc(S(=O)(=O)O)ccc2Cl)C(=O)C1N=Nc1ccccc1 (stereo not drawn)	inactive
COC(=O)c1sccc1S(N)(=O)=O	inactive
C=CC(=O)OCCOC(=O)C=C	inactive
CC(C)(C)c1ccc(OC(=O)c2ccccc2O)cc1	inactive
Nc1nc2ccccc2[nH]1	inactive
O=S(=O)(O)c1cc(S(=O)(=O)O)c2ccc3c(S(=O)(=O)O)cc(S(=O)(=O)O)c4ccc1c2c43	inactive
c1ccc2c(c1)ccc1ncccc12	inactive
CCCCCCCCCCc1ccccc1	inactive
CCCCCC/C=C\CCCCCCCC(=O)O	inactive
CC/C=C\C/C=C\C/C=C\CCCCCCCC(=O)O	inactive
C=C1[C@H]2CC[C@@H]3[C@H]2C(C)(C)CCC[C@]13C	inactive
NC(=O)c1ccccc1O	inactive
O=C(Cl)c1cc(C(=O)Cl)cc(C(=O)Cl)c1	inactive
O=c1c2ccccc2nnn1CCl	inactive
CCCC(C)CCC(C)=O (stereo not drawn)	inactive
C[Si](C)(C)O[Si](O)(O)O	inactive
N[C@H]1C(O)O[C@H](CO)[C@H](O)[C@@H]1O (stereo partly drawn)	inactive
CCCCCCCC/C=C\CCCCCCCC(=O)O	inactive
CC(C)(C)C1CCCCC1=O (stereo not drawn)	inactive
Cc1c(C)c([N+](=O)[O-])c(C(C)(C)C)c([N+](=O)[O-])c1C	inactive
CCCCNc1ccc(NCCCC)c2c1C(=O)c1ccccc1C2=O	inactive
COC(=O)c1cc(Cl)ccc1[N+](=O)[O-]	inactive
CCCCCCCCCCCCCCCCCC#N	inactive
COC=O	inactive
Cc1cc(C)c(C)c(C)c1	inactive
CO[Si](OC)(OC)c1ccccc1	inactive
COC(=O)c1ccccc1OC	inactive
CC(C)c1ccc2c(c1)CC[C@H]1[C@](C)(CN)CCC[C@]21C	active
Nc1ccc(Oc2ccc(N)c(N)c2)cc1	inactive
COC(=O)/C=C\C(=O)O	inactive

----------
test: ATG_AP_1_CIS: Attagene CIS-FACTORIAL HepG2 Assay for human Activator Protein 1 (AP-1) (AID 2282931); conditions: HepG2 Attagene cis-factorial AP-1 reporter mRNA; actives raise or lower the signal
The source made the active and inactive calls. The calls were made as follows: active = hit-call score of the fitted dose curve at least 0.9, where 1 is the maximum; inactive = score below 0.9.

Compound	AC50
COc1ccc(-c2coc3cc(O)ccc3c2=O)cc1	inactive
O=S1(=O)OC(c2ccc(O)cc2)(c2ccc(O)cc2)c2ccccc21	inactive
CCCCCCCC(C)=O	inactive
CCCC(=O)OCc1ccccc1	inactive
OCCCS	inactive
CC(C)c1ccc2c(C(C)C)cc(C(C)C)c(S(=O)(=O)O)c2c1	inactive
Cc1cccc(OCCOc2cccc(C)c2)c1	inactive
CCOC(=O)c1ccc(N(C)C)cc1	inactive
CC1=CC[C@H](C(C)C)C=C1	inactive
Nc1cccc(C(F)(F)F)c1	inactive
O=C1CCCN1CCO	inactive
CC(C)(C)c1ccc(OC(=O)c2ccccc2O)cc1	inactive
C=CC(C)(CCC=C(C)C)OC(=O)C(C)C (configuration not stated)	146 µM (active)
CC1=NC(C)OC1C (configuration not stated)	100 µM (active)
[Cl][Bi]([Cl])([c]1ccccc1)([c]1ccccc1)[c]1ccccc1	5.85 µM (active)
CCCCCCCCCCOS(=O)(=O)O	inactive
FC(F)(F)C(=NOCC1OCCO1)c1ccc(Cl)cc1	inactive
NCCCN1CCN(CCCN)CC1	inactive
NC(=O)OCC(COC(N)=O)c1ccccc1	inactive
Cc1cc(C)c(C(=O)O)c(C)c1	inactive
CC1=NN(c2cc(S(=O)(=O)O)ccc2Cl)C(=O)C1N=Nc1ccccc1 (configuration not stated)	inactive
N#CCc1ccc(Cl)cc1Cl	inactive
C=CC(=O)OCCOC1C2CCC1C1CC=CC12 (configuration not stated)	inactive
C=C1C2CCC(C2)C1(C)C (configuration not stated)	inactive
C=C(C)CCO	inactive
O=S(=O)(O)c1ccc2cc(O)c(S(=O)(=O)O)cc2c1	inactive
O=c1[nH]nc(-c2ccc([N+](=O)[O-])o2)o1	87.6 µM (active)
c1cc(N(CC2CO2)CC2CO2)ccc1OCC1CO1 (configuration not stated)	inactive
CCCCC(CC)COC(=O)c1ccccc1O (configuration not stated)	inactive
COc1cc(NC(=O)CC(C)=O)c(OC)cc1Cl	inactive
CN(C)c1ccc(C(=N)c2ccc(N(C)C)cc2)cc1	inactive
CCO[Si](C)(OCC)OCC	inactive
Cc1oncc1C(=O)Nc1ccc(C(F)(F)F)cc1	100 µM (active)
O=Nc1ccc(O)cc1	inactive
O=C(O)CCCCCCCCCC(=O)O	inactive
S=C(NC1CCCCC1)NC1CCCCC1	inactive
Cc1cccc(N)n1	inactive
CC(C)c1ccc2c(c1)CC[C@H]1[C@](C)(CN)CCC[C@]21C	5.99 µM (active)
c1cc(C(c2ccc(OCC3CO3)cc2)C(c2ccc(OCC3CO3)cc2)c2ccc(OCC3CO3)cc2)ccc1OCC1CO1 (configuration not stated)	inactive
CCCCCCCCCCCCCCCC[n+]1ccccc1	20.4 µM (active)
C=CCOc1c(Br)cc(Br)cc1Br	inactive
CCOc1ccc(N)c([N+](=O)[O-])c1	inactive
C=COCCCC	inactive
CC(=O)OC1C2(C)CCC(C2)C1(C)C (configuration not stated)	inactive
c1c[nH]cn1	inactive
CCCCC(CC)CCC(CC(C)C)OS(=O)(=O)O (configuration not stated)	139 µM (active)
CCCOCCOCCOCCO	inactive
